Each item that follows carries a reported binding (fold over iso).
# MEASUREMENT TARGET: T1, human LILRB4 (human, UniProt Q8NHJ6 22-448)
# T1 construct: Over-expressed on CHO-s cells; also called hLILRB4
# ASSAY DETAILS: flow cytometry, LILRB4 CHOs
The response must be a number in fold over iso with no trailing unit.

Please review the entries below; each comes with its answer.
>>> reported_measurement("J-17 (antibody, human IgG4 S228P, kappa, V domains shown, Human IgG4 chimera of murine origin; also called J-17.h) VH: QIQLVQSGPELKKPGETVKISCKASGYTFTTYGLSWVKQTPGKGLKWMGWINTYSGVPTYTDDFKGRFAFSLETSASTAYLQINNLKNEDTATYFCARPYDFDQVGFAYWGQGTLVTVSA VL: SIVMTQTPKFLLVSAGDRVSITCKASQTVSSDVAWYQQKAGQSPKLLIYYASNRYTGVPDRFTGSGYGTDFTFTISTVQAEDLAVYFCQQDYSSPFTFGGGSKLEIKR")
1
>>> reported_measurement("J-19 (antibody, human IgG4 S228P, kappa, V domains shown, Human IgG4 chimera from a rat immunization; also called J-19.h) VH: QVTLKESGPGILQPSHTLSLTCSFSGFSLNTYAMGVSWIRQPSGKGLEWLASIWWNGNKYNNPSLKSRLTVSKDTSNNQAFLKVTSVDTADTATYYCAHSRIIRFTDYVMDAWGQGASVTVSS VL: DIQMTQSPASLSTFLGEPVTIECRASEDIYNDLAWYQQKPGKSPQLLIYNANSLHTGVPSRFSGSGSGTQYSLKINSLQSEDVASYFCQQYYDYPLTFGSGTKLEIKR")
1.03
>>> reported_measurement("J-03 (antibody, human IgG4 S228P, kappa, V domains shown, Human IgG4 chimera of murine origin) VH: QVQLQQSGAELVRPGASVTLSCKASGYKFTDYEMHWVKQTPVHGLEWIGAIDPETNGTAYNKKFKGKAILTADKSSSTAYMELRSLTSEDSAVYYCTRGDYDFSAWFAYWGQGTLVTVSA VL: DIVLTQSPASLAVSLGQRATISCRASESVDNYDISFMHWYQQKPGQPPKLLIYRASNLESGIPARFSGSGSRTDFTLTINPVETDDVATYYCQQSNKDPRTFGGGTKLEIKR")
1.02
>>> reported_measurement("J-04 (antibody, human IgG4 S228P, kappa, V domains shown, Human IgG4 chimera of murine origin) VH: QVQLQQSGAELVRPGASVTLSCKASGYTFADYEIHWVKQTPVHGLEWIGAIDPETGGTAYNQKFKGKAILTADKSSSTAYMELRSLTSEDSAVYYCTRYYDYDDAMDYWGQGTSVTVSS VL: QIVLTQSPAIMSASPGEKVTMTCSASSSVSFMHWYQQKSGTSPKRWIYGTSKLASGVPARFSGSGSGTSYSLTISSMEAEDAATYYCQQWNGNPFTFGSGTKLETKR")
0.83

Q. Report binding (fold over iso) for J-11 (antibody, human IgG4 S228P, kappa, V domains shown, Human IgG4 chimera of murine origin; also called J-11.h) VH: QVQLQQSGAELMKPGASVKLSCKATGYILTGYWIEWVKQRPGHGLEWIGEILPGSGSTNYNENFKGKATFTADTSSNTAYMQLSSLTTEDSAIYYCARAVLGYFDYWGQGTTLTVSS VL: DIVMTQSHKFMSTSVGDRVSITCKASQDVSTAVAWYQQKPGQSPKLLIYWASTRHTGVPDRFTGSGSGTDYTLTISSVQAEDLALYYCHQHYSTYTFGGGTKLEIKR please.
A. 1.03
